Reference source for all entries: patent US20230151091A1

# ASSAYED_TARGET: cynomolgus monkey MuSK (cynomolgus monkey, UniProt A0A2K5USF6 24-487)
# Sequence (A0A2K5USF6 entry or part of it): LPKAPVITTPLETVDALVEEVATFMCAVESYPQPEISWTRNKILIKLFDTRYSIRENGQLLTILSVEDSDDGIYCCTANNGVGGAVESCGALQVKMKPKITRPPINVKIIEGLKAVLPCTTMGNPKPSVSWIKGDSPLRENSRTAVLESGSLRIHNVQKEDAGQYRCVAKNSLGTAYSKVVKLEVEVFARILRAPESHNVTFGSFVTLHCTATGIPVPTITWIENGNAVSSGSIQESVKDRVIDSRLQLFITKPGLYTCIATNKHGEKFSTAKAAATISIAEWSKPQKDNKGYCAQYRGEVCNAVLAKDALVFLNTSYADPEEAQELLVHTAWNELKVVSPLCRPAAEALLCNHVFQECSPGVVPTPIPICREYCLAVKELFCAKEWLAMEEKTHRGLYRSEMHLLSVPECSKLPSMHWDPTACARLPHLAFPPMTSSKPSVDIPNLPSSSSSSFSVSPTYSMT
# ASSAY_INFO: Biacore, MuSK on chip (200RU), 66.7 nM mAb, dissociation pH 7.4
QUANTITY_NAME: kon (M⁻¹ s⁻¹)
Provide the reading as a plain figure in M⁻¹ s⁻¹.

Per the record, 3B2g1m1 (antibody, human IgG1, V domains shown, human IgG1-LALA backbone; produced in HEK293 cells) VH: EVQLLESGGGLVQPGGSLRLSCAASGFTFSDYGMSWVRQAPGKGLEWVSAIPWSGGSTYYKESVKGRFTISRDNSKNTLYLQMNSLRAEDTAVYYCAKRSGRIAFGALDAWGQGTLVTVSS VL: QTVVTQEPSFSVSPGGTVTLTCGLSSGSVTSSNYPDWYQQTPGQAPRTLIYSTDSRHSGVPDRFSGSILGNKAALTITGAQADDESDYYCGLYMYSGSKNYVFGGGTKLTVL has kon of 840000
